All values here come from patent US20060106099A1.

tested on: HCT 116 +/+ cells
Measurement Type: EC50 (µM)
Note: unit µM is implicit; provide only the numeric part.

Supply EC50 value. Item: "CCCCC[C@H](O)C/C=C1/C(=O)C=C[C@@H]1C/C=C\CCCC(=O)O"
3.6

* * *

system: RKO cells
Measurement Type: pEC50
Quick note: pEC50 values are minus log10 of concentrations in mol/L.

Supply pEC50 value. Item: C=C1C(=O)C2=CC1CCC(=O)C1(C)CCC(OC(C)=O)C(C)(C)C1CC2O (centres unmarked) [NSC-302979, shikoccin]
5.74

* * *

system: HCT 116 −/− cells
Measurement Type: EC50 (µM)
Note: unit µM is implicit; provide only the numeric part.

Supply EC50 value. Item: "CCCCC[C@H](O)C/C=C1/C(=O)C=C[C@@H]1C/C=C\CCCC(=O)O"
4.1

* * *

Entries and their EC50 values follow.
system: RKO cells; assay: MTT cell viability assay, RKO cells; conditions: read-out: EC50 in RKO cell lines, prostaglandins for comparison; comparison values in the text
Note: unit µM is implicit; provide only the numeric part.

CCCCC[C@H](O)C/C=C1/C(=O)C=C[C@@H]1C/C=C\CCCC(=O)O [Δ12-PGJ2, Δ12-prostaglandin J2]	9

--- query ---
Supply EC50 value. Item: CCCCC[C@H](O)/C=C/[C@H]1C=CC(=O)[C@@H]1CCCCCCC(=O)O [PGA1]
33.6

* * *

Entries and their EC80, concentration that gave 80% cell death values follow.
system: RKO-E6 cells; test: MTT cell viability assay, RKO-E6 cells; settings: cell viability assay at 48 h, RKO-E6 cells

These solved cases illustrate the format of a correct answer.
O=C(C=Cc1ccccc1)C=Cc1ccccc1	12.0 µM
CCCCC[C@H](O)C/C=C1/C(=O)C=C[C@@H]1C/C=C\CCCC(=O)O	13.2 µM
C=C1C(=O)C2=CC1CCC(=O)C1(C)CCC(OC(C)=O)C(C)(C)C1CC2O (stereo not shown)	3.5 µM

--- query ---
Supply EC80, concentration that gave 80% cell death value. Item: "COc1cc(/C=C/C(=O)CC(=O)/C=C/c2ccc(O)c(OC)c2)ccc1O"
17 µM

* * *

system: RKO-E6 cells; assay: MTT cell viability assay, RKO-E6 cells; conditions: read-out: Cytotoxic Potency (EC50) RKO-E6; 48 h, MTT
Measurement Type: EC50

Supply EC50 value. Item: CC1=CC(=O)C2=C(C)CCC3C(C)C(=O)OC3C12 (stereo not shown)
> 60 µM

* * *

tested on: HCT 116 +/+ cells; experiment: MTT cell viability assay, HCT 116 p53 +/+ cells; settings: read-out: Cytotoxic Potency (EC50) HCT +/+; 48 h, MTT
Measurement Type: pEC50
Quick note: pEC50 values are minus log10 of concentrations in mol/L.

Supply pEC50 value. Item: C=C1C(=O)C2=CC1CCC(=O)C1(C)CCC(OC(C)=O)C(C)(C)C1CC2O (centres unmarked) [NSC-302979, shikoccin]
5.57
